FYI, the data here is from paper PMC4336329.

compounds and their reported hERG current change (%, negative = inhibition) at 10uM
- measured.target: human ether-à-go-go-related gene (hERG) potassium channel (human);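 also: peak tail current of the secondary pulse compared with the same well before compound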
- Sequence (Q12809 whole entry, looked up): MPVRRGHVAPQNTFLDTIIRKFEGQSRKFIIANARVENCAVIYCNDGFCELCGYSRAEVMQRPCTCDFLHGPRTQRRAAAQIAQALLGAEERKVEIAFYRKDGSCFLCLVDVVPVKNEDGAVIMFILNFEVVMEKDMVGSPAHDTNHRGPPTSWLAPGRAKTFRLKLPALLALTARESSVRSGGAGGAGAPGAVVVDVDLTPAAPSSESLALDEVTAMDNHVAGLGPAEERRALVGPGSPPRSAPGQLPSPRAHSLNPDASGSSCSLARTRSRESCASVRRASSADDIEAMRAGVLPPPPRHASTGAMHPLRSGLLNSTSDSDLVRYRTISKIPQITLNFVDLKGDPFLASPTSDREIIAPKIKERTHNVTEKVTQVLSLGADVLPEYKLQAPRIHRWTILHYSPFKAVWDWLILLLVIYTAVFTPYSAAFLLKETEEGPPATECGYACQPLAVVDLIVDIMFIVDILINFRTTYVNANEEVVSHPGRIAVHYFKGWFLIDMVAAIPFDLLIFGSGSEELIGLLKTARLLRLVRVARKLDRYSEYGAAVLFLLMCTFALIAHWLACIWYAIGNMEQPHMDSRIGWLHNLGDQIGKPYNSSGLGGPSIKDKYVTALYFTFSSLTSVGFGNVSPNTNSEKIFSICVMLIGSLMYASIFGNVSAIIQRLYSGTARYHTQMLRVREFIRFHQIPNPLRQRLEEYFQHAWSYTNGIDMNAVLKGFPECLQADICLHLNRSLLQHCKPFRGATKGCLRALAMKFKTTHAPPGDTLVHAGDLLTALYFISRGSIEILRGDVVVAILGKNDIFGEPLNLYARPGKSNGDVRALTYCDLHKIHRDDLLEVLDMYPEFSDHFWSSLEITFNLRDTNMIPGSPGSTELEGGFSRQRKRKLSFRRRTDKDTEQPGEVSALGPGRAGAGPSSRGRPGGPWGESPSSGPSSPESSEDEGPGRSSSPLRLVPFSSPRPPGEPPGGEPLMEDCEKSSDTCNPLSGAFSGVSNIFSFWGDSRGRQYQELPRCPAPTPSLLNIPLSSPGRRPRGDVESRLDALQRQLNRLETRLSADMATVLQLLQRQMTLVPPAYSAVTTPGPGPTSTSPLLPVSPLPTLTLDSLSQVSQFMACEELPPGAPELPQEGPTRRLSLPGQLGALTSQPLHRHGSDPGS
- assay.info: primary screen, population patch clamp on CHO cells stably expressing hERG; higher = less effect of the substance
The whole screen tested about 310,000 compounds, of which about 14,000 (4.5%) showed an effect of 50% or more. Effects have a minus sign here. The entries come from a sample that favours strong results as a whole.
Quick reminder: number only, in %, skip the unit.

Some compounds with known hERG current change (%, negative = inhibition) at 10uM results, for comparison:
CCOCCCN(C)C1CCN(C(=O)c2oc3ccccc3c2NC(=O)c2ccc([N+](=O)[O-])cc2)CC1 ... -75.9
O=C(Nc1c(C(=O)N2CCOCC2)oc2ccccc12)c1cccc([N+](=O)[O-])c1 ... -20.2
O=C(NCC(=O)N1CCC(Cc2ccccc2)CC1)c1ccc(Cl)cc1 ... -23.3
Cc1cc(C)cc(C(=O)NCCCc2ccccc2)c1 ... -4.26

Next compound, hERG current change (%, negative = inhibition) at 10uM to be filled in.
### Prompt Name the reported hERG current change (%, negative = inhibition) at 10uM value associated with the compound CCc1csc(CCNC(=O)C2CCC(=O)N(CCc3cccc(F)c3)C2)n1 (centres unmarked)
### Response -13.4
